Data credit: patent US20260242735A1

The binders listed here are annotated with their Mean % WT Binding.
target: human CD33 H45A (human, UniProt P20138 18-364); assay: alanine scan, flow cytometry;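 also: HEK293-T cells transiently expressing single-residue alanine mutants of CD33 (alanine swapped to serine), antibody binding read by fluorescence in duplicate, background-subtracted, expressed relative to wild-type CD33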
Sequence (P20138 18-364 H45A limits assumed): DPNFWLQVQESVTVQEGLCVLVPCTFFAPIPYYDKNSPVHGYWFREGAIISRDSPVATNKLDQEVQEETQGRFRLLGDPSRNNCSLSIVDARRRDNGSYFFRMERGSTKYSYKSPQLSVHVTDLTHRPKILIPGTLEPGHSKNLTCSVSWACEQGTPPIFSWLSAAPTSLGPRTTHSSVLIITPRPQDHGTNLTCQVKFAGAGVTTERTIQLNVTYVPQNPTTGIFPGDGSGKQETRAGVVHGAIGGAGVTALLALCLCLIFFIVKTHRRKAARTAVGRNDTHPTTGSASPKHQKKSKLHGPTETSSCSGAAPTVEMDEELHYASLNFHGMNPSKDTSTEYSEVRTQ

- BINDER: "Refmab #2 (antibody, V domains shown, Full-length format is human IgG1 Fc silent (PG-LALA); The alanine scan used IgG or Fab) VH: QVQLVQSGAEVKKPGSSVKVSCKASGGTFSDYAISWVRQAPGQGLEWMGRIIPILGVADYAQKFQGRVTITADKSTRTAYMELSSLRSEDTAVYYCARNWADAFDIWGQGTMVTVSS VL: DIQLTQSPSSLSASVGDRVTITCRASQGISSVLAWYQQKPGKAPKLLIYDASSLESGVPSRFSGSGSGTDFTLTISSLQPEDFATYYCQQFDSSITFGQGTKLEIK"
  Mean % WT Binding: "73.6 % WT"
- BINDER: "Refmab #4 (antibody, V domains shown, Full-length format is human IgG1 Fc silent (PG-LALA); The alanine scan used IgG or Fab) VH: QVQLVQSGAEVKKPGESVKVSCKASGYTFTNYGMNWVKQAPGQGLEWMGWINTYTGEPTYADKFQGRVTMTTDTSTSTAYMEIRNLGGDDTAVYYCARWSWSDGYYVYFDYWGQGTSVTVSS VL: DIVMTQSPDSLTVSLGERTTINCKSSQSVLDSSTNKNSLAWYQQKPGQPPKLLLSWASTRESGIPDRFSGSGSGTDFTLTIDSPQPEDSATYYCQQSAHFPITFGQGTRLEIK"
  Mean % WT Binding: "134 % WT"
- BINDER: "Refmab #1 (antibody, V domains shown, Full-length format is human IgG1 (Absolute Antibody Ab00283-10.0); The alanine scan used IgG or Fab; also called hP67.6) VH: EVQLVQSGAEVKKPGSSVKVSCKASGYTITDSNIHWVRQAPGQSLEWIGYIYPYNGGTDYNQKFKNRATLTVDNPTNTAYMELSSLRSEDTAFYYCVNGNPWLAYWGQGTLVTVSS VL: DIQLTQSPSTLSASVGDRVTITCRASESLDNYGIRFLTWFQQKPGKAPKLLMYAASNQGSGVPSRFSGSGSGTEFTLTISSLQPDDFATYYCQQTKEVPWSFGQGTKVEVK"
  Mean % WT Binding: "38.7 % WT"
